The reported numbers originate from patent US10633351B2.

- PROCEDURE_SUMMARY: Pharmacokinetics in SD rats after IV and PO administration
- Format: in vivo
- EXPERIMENTAL_SETUP: male, SD, rat, plasma, iv, 2 mg/kg, IV 2 mpk, read-out: Area under curve AUC0-inf
RESULT_TYPE: AUC(0-inf) (µM·h)
All answers are understood in µM·h, so give the number only.

Q: I would be grateful if you could share the reported AUC(0-inf) for O=C(O)CSc1nnc(Br)n1-c1c(Cl)cc(C2CC2)c2ccccc12 (single isomer, unassigned) [(−)-WX001] .
Ans: 33

###

- PROCEDURE_SUMMARY: Pharmacokinetics in SD rats after IV and PO administration
- Type: in vivo
- EXPERIMENTAL_SETUP: rat, IV 2 mpk; read-out: Starting concentration C0
RESULT_TYPE: C0
A complete answer gives the number followed by the unit.

Q: Report C0 for O=C(O)CSc1nnc(Br)n1-c1ccc(C2CC2)c2ccccc12 (racemic) [(±)-Lesinurad, Lesinurad, reference compound] please.
Ans: 11.6 µM

###

- PROCEDURE_SUMMARY: Pharmacokinetics in SD rats after IV and PO administration
- Format: in vivo
- EXPERIMENTAL_SETUP: male, SD, rat, plasma, iv, 2 mg/kg, IV 2 mpk, read-out: Detention time MRT0-inf
RESULT_TYPE: MRT inf (h)
All answers are understood in h, so give the number only.

Q: Tell me the measured MRT inf of O=C(O)CSc1nnc(Br)n1-c1c(Cl)cc(C2CC2)c2ccccc12 (single isomer, unassigned) [(−)-WX001] , please.
Ans: 4.4

###

- PROCEDURE_SUMMARY: Pharmacokinetics in SD rats after IV and PO administration
- Assay type: in vivo
- EXPERIMENTAL_SETUP: male, SD, plasma, 10 mg/kg; rat, PO 10 mpk; read-out: Peak time Tmax
RESULT_TYPE: Tmax (h)
The figure you give is taken to be in h; do not add the unit.

Q: Param item = O=C(O)CSc1nnc(Br)n1-c1c(Cl)cc(C2CC2)c2ccccc12 (single isomer, unassigned) [(−)-WX001] ; retrieve measured Tmax.
Ans: 1.67

###

- PROCEDURE_SUMMARY: Pharmacokinetics in SD rats after IV and PO administration
- Assay type: in vivo
- EXPERIMENTAL_SETUP: male, SD, rat, plasma, iv, 2 mg/kg, IV 2 mpk, read-out: Half-life T1/2 (converted)
- Description: Drug concentrations in plasma of (−)-WX001 and (+)-WX002 were measured by LC/MS/MS method at different times after SD rats as tested animals were administered (−)-WX001 and (+)-WX002 by IV (intravenous injection) and PO (gavage), and the pharmacokinetic behavior of the compound in the present invention in rats was investigated, and its pharmacokinetic characteristics were evaluated. […]
RESULT_TYPE: half-life (h)
Just the number in h, nothing appended.

Q: Recorded half-life of O=C(O)CSc1nnc(Br)n1-c1c(Cl)cc(C2CC2)c2ccccc12 (single isomer, unassigned) [(−)-WX001] , please.
Ans: 2.86

###

- PROCEDURE_SUMMARY: Pharmacokinetics in SD rats after IV and PO administration
- Type: in vivo
- EXPERIMENTAL_SETUP: rat, IV 2 mpk; 2 mg/kg; read-out: Starting concentration C0
RESULT_TYPE: C0 (µM)
Number only, in µM; omit the unit.

Q: Which C0 value is on record for O=C(O)CSc1nnc(Br)n1-c1c(Cl)cc(C2CC2)c2ccccc12 (single isomer, unassigned) [(+)-WX002] ?
Ans: 12.9
